// provenance: PubChem BioAssay AID248

Documented T/C across a set of compounds
tested on: L1210 leukemia ip in BDF1 mice, survival T/C; test: NCI In Vivo Anticancer Drug Screen. Data for tumor model L1210 Leukemia (intraperitoneal) in B6D2F1 (BDF1) mice; settings: endpoint: mean survival time; dose: 400.0 mg/kg/injection; schedule: Q01DX009 (ip); vehicle: saline with Tween-80; higher = longer survival
Inconclusive results and toxic doses are left out.

Some solved entries appear below for comparison.
{"columns": ["compound", "T/C"],
 "data": [
  ["O=C(NCCCCOc1ccc([N+](=O)[O-])cc1Cl)c1ccc(S(=O)(=O)F)cc1", "100 % of control"],
  ["O=S(=O)(O)Cc1ccccc1O", "93 % of control"],
  ["CC(C)(C)c1cc(C(C)(C)C)c(O)c(C(C)(C)C)c1", "93 % of control"],
  ["Cc1cccc(C)c1NC(=S)NNC(=O)c1ccncc1", "100 % of control"],
  ["NNC(=O)CCCCCO", "100 % of control"],
  ["O=C(NC(=S)Nc1cccc(O)c1)c1cccc([N+](=O)[O-])c1", "94 % of control"]
]}

Please give the measured T/C for this compound: Cc1cc(C)cc(OC(=O)/C=C/C(=O)Oc2cc(C)cc(C)c2)c1
102 % of control

Please give the measured T/C for this compound: CC(=O)c1ccc2c3c(cccc13)CC2
101 % of control

Please give the measured T/C for this compound: O=CNc1ccc(O)cc1
114 % of control

Please give the measured T/C for this compound: CC(=O)OC1CCC2(C)C3CCC4(C)C(O)CCC4C3CC(O)C2(O)C1 (stereo not given)
94 % of control

* * *

Documented T/C across a set of compounds
system: L1210 leukemia ip in BDF1 mice, survival T/C; experiment: NCI In Vivo Anticancer Drug Screen. Data for tumor model L1210 Leukemia (intraperitoneal) in B6D2F1 (BDF1) mice; details: endpoint: mean survival time; dose: 400.0 mg/kg/injection; schedule: Q01DX001 (ip); vehicle: saline; higher = longer survival
Toxic doses and inconclusive results are not listed.

Some solved entries appear below for comparison.
{"columns": ["compound", "readout_name", "value_reported"],
 "data": [
  ["O=c1cc(CO)oc(C(Nc2ccccc2)c2ccccc2)c1O (stereo unspecified)", "T/C", "95 % of control"],
  ["O=C1NC(=O)C2(CCCC2)N1", "T/C", "102 % of control"]
]}

Value wanted: T/C (L1210 leukemia ip in BDF1 mice, survival T/C) of entry O=c1c2c(c(=O)c(=O)c1=O)Nc1ccccc1N2
98 % of control

Value wanted: T/C (L1210 leukemia ip in BDF1 mice, survival T/C) of entry COc1ccc(OC)c([N+](=O)[O-])c1
96 % of control

Value wanted: T/C (L1210 leukemia ip in BDF1 mice, survival T/C) of entry O=C(/C=C\c1ccccc1)NCCNC(=O)/C=C/c1ccccc1
108 % of control

Value wanted: T/C (L1210 leukemia ip in BDF1 mice, survival T/C) of entry O=C(C#Cc1ccccc1)OCC#Cc1ccccc1
94 % of control

* * *

Documented T/C across a set of molecules
tested on: L1210 leukemia ip in BDF1 mice, survival T/C; assay: NCI In Vivo Anticancer Drug Screen. Data for tumor model L1210 Leukemia (intraperitoneal) in B6D2F1 (BDF1) mice; settings: endpoint: mean survival time; dose: 200.0 mg/kg/injection; schedule: Q04DX003 (ip); vehicle: saline with Tween-80; higher = longer survival
Inconclusive results and toxic doses are left out.

Some solved entries appear below for comparison.
{"columns": ["molecule", "T/C"],
 "data": [
  ["O=[N+]([O-])c1ccc(NCCO)c([N+](=O)[O-])c1", "97 % of control"],
  ["CCOC(=O)C1=CC=CC1=O", "95 % of control"],
  ["NC(=O)c1ccccc1C(Cl)(Cl)Cl", "96 % of control"],
  ["O=C(NC(=S)Nc1cccc(O)c1)c1cccc([N+](=O)[O-])c1", "109 % of control"],
  ["O=C(NCc1ccccc1)C1C2C=CC(C2)C1C(=O)NCc1ccccc1 (stereo unspecified)", "91 % of control"]
]}

Please give the measured T/C for this molecule: COc1ccc(-n2c(=O)c(N=Nc3ccccc3)c(O)n(-c3ccc(I)cc3)c2=S)cc1
100 % of control

* * *

test system: L1210 leukemia ip in BDF1 mice, survival T/C; assay: NCI In Vivo Anticancer Drug Screen. Data for tumor model L1210 Leukemia (intraperitoneal) in B6D2F1 (BDF1) mice; conditions: endpoint: mean survival time; dose: 200.0 mg/kg/injection; schedule: Q01DX009 (ip); vehicle: saline; higher = longer survival
Inconclusive results and toxic doses are left out.
readout_name: T/C

{"columns": ["structure_notation", "T/C"],
 "data": [
  ["O=c1cc(-c2ccc(S(=O)(=O)F)cc2)[nH]c2ccc([N+](=O)[O-])cc12", "101 % of control"],
  ["CCOC(N)=O", "104 % of control"]
]}

Now examine the next entry.
Please give the measured T/C for this compound: Cn1ncc(=O)[nH]c1=O
103 % of control

* * *

tested on: L1210 leukemia ip in BDF1 mice, survival T/C; experiment: NCI In Vivo Anticancer Drug Screen. Data for tumor model L1210 Leukemia (intraperitoneal) in B6D2F1 (BDF1) mice; settings: endpoint: mean survival time; dose: 400.0 mg/kg/injection; schedule: Q04DX003 (ip); vehicle: Klucel (hydroxypropylcellulose) (HPC); higher = longer survival
Inconclusive results and toxic doses are left out.
Documented T/C across a set of molecules

Some solved entries appear below for comparison.
{"columns": ["molecule", "T/C"],
 "data": [
  ["Cc1c(N=Nc2ccccc2)c(=O)[nH]n1-c1ccccc1", "96 % of control"],
  ["COc1ccc2c(c1C)OC(C)C2=O (configuration not stated)", "97 % of control"],
  ["O=P1(CCc2ccccc2)CC(Br)C(Br)C1 (configuration not stated)", "98 % of control"],
  ["CC(C)C(=O)Nc1ccc([N+](=O)[O-])c(C(F)(F)F)c1", "92 % of control"],
  ["COc1ccc(NC(=O)O/N=C2\\CN(S(=O)(=O)c3ccc(C)cc3)CCc3ccccc32)cc1", "96 % of control"],
  ["COc1ccc(C(=O)CC(C)C(=O)O)c(O)c1C (configuration not stated)", "96 % of control"],
  ["CCCCC(CC)C1OC(=O)C(C)O1 (configuration not stated)", "102 % of control"],
  ["CCOC(=O)c1cnc(SC)nc1Nc1cccc([N+](=O)[O-])c1", "95 % of control"],
  ["O=C1NCCO1", "103 % of control"],
  ["O=C(O)CC1(C(=O)O)CCN(Cc2ccccc2)CC1", "100 % of control"]
]}

Please give the measured T/C for this molecule: Cc1ccc(NS(=O)(=O)c2ccc(Cl)cc2)cc1Cl
100 % of control

Please give the measured T/C for this molecule: CC1(C)CN1C1=C(NC(=O)CCl)C(=O)c2ccccc2C1=O
91 % of control

Please give the measured T/C for this molecule: CC1=Nc2ccccc2NC(C)(C)C1
98 % of control

Please give the measured T/C for this molecule: CC1(C)Cc2cccc(C=C(C#N)C#N)c2O1
113 % of control

Please give the measured T/C for this molecule: Nc1ccc(CNC(=O)COc2ccc(Cl)cc2C(=O)O)cc1
100 % of control

Please give the measured T/C for this molecule: O=C(O)c1nc[nH]c1C(=O)O
88 % of control

Please give the measured T/C for this molecule: CC(=O)Oc1cc2c(cc1[N+](=O)[O-])OCO2
105 % of control

Please give the measured T/C for this molecule: COc1cc([N+](=O)[O-])c2ncccc2c1
104 % of control

* * *

Documented T/C across a set of molecules
system: L1210 leukemia ip in BDF1 mice, survival T/C; experiment: NCI In Vivo Anticancer Drug Screen. Data for tumor model L1210 Leukemia (intraperitoneal) in B6D2F1 (BDF1) mice; details: endpoint: mean survival time; dose: 100.0 mg/kg/injection; schedule: Q01DX009 (ip); vehicle: Klucel (hydroxypropylcellulose) (HPC); higher = longer survival
Inconclusive results and toxic doses are left out.

{"columns": ["molecule", "T/C"],
 "data": [
  ["CS1(=O)=CC(=O)CC(c2ccccc2)C1 (configuration not stated)", "107 % of control"],
  ["C/C(=N\\O)C(=O)c1ccccc1", "98 % of control"],
  ["O=C(/C=C(/C(=C/C(=O)c1ccccc1)c1ccccc1)c1ccccc1)c1ccccc1", "94 % of control"],
  ["CN(CCNC(=O)C1CCCCC1C(=O)O)c1ccccc1 (configuration not stated)", "98 % of control"],
  ["OCc1cc2ccccc2cc1O", "97 % of control"]
]}

Please give the measured T/C for this molecule: COc1cccc(OC)c1C#N
96 % of control

Please give the measured T/C for this molecule: Cc1ccc(OC/C=C/CS(=O)(=O)c2ccc(C)cc2)cc1
98 % of control

Please give the measured T/C for this molecule: CCCCC(CC)C1OC(=O)C(C)O1 (configuration not stated)
100 % of control

Please give the measured T/C for this molecule: CSc1nc2ccc(S(=O)(=O)O)cc2s1
96 % of control

Please give the measured T/C for this molecule: CN(C)CCCNC(=O)Nc1ccccc1
100 % of control

Please give the measured T/C for this molecule: O=C(O)C(=C(c1ccccc1)c1ccccc1)c1cccc2ccccc12
101 % of control

Please give the measured T/C for this molecule: CN(C)CCCC1(O)c2ccccc2Sc2cc(Cl)ccc21 (configuration not stated)
100 % of control

Please give the measured T/C for this molecule: COc1ccc(OC)c([N+](=O)[O-])c1
100 % of control

Please give the measured T/C for this molecule: CCCNC(=O)OC/C=C\CC(Cl)(Cl)Cl
96 % of control
